Test system: Escherichia coli (ECO) isolates
Test: MIC of compounds alone and combined with antibacterials, broth microdilution (CLSI)
Assay type: cell-based
Conditions: ECO UFR176; AF1 @ 4 μg/mL
measured-attribute: MIC ATB in combination

1) C=CC1=C(C(=O)O)N2C(=O)[C@@H](NC(=O)/C(=N\O)c3csc(N)n3)[C@H]2SC1 [CDR, Cefdinir] = <=0.25 μg/mL
2) C=CC1=C(C(=O)O)N2C(=O)[C@@H](NC(=O)/C(=N\OCC(=O)O)c3csc(N)n3)[C@H]2SC1 [FIX, Cefixime] = <=0.25 μg/mL
3) COCC1=C(C(=O)O)N2C(=O)[C@@H](NC(=O)/C(=N\OC)c3csc(N)n3)[C@H]2SC1 [POD, Cefpodoxime] = <=0.25 μg/mL
